# experimental.system: DR4w4 (DRB1*0401) (Homo sapiens, UniProt P01903+P01911, A100K/A169T/F76Y/I96L/K127E/L162R/M171V/N62H/P40V/Q125Y/R42H/S133A/S149N/S66Y/V115G/V209L/W38E)
# measurement.protocol: biochemical
# Type: binding
# condition.details: read-out: DRB1*0401
pIC50: −log10 of the molar value. No end group written: not given here.
The threshold is inclusive: pIC50 of exactly 7 counts as Satisfied; values below receive Not satisfied.

INSERT INTO assay_data (substance, cat) VALUES
  ('839.03 (AAAATKAAAA; also: non-natural residues (14), (35)) [Peptide 839.03]', 'Not satisfied');

query: Textbook exercise: given the entry 730.15 (AAKAAAAAAAAA; also: non-natural residue (10)) [Peptide 730.15] , state whether its pIC50 is greater than or equal to 7.
result: Not satisfied

query: Textbook exercise: given the entry 787.35 (AAIGFFFFKKGIA; also: non-natural residue (43)) [Peptide 787.35] , state whether its pIC50 is greater than or equal to 7.
result: Not satisfied

query: Textbook exercise: given the entry 820.03 (ARQTTLKAAA; also: non-natural residue (15A)) [Peptide 820.03] , state whether its pIC50 is greater than or equal to 7.
result: Satisfied
